Below: a set of entries, each annotated with reported koff.
target: SARS-CoV-2 Wuhan-Hu-1 RBD for SPR binding assays (SARS-CoV-2 Wuhan-Hu-1 (NC_045512.2), UniProt P0DTC2)
method_description: SPR
test_settings: both partners purified
property_measured: koff (s⁻¹)

>>> endpoint_result("ADI-58125 IgG1 (antibody, V domains shown, IgG1) VH: EVQLVESGGGLVKPGGSLRLSCAASGFTFSSYYMNWVRQAPGKGLEWVSSISEDGYSTYYPDSLKGRFTISRDSAKNSLYLQMNSLRADDTAVYYCARDFSGHTAWAGTGFEYWGQGTLVTVSS VL: QSVLTQPPSVSGAPGQRITISCTGSSSNIGAGYDVHWYQQLPGTAPKLLIYGSSSRNSGVPDRFSGSKSGTSASLAITGLQAEDEADYYCQSYDSSLSVLYTFGTGTKVTVL")
"7.17e-08"
>>> endpoint_result("REGN10933 IgG1 (antibody, V domains shown, IgG1) VH: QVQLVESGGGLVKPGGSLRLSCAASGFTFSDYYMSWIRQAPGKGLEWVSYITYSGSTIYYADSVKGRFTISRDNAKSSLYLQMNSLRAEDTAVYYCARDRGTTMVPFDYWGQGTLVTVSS VL: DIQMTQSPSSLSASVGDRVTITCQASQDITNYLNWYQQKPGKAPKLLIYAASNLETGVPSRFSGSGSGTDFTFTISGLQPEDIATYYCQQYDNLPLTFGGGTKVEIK")
0.00364
>>> endpoint_result("S2X35 IgG (antibody, V domains shown) VH: QVQLVQSGAEVKKPGASVKVSCKASGYTFTNYGISWVRQAPGQGLEWMGWISAYKGNTNYAQKLQGRVTMTTDTSTSTAYMELRSLRSDDTAVYYCARPDYQVLGYDFWIGYYGMDVWGQGTTVIVSS VL: QSVLTQPPSVSGAPGQRVTISCTGSSSNIGAGYDVHWYQQLPGTAPKLLIYGNTNRPSGVPDRFSGSKSGTSASLAITGLQAEDEADYYCQSYDSSLSGSEVVFGGGTKLTVL")
0.000153
>>> endpoint_result("CT-P59 IgG1 (antibody, V domains shown, IgG1) VH: QITLKESGPTLVKPTQTLTLTCSFSGFSLSTSGVGVGWIRQPPGKALEWLALIDWDDNKYHTTSLKTRLTISKDTSKNQVVLTMTNMDPVDTATYYCARIPGFLRYRNRYYYYGMDVWGQGTTVTVSS VL: ELVLTQPPSVSAAPGQKVTISCSGSSSNIGNNYVSWYQQLPGTAPKLLIYDNNKRPSGIPDRFSGSKSGTSATLGITGLQTGDEADYYCGTWDSSLSAGVFGGGTELTVL")
0.000365
